measured_on: T1, human CC chemokine receptor 4 (CCR4) (human, UniProt P51679 1-360)
T1 sequence (looked up): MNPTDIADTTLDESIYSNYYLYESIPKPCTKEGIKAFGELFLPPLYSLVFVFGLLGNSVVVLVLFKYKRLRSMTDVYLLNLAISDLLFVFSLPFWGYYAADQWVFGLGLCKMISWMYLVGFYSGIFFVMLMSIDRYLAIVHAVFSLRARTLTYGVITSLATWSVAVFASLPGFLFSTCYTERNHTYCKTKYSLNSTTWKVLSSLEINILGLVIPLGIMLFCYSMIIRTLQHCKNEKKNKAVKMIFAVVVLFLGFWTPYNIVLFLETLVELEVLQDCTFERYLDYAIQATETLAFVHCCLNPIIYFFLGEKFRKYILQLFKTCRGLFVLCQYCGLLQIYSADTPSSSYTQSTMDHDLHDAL
protocol_notes: cell-based or functional assay
readout_label: ADCC on CCRF-CEM cells, Max. Killing (%; nM IgG)

binder="KW0761 IgG (antibody, V domains shown) VH: EVQLVESGGDLVQPGRSLRLSCAASGFIFSNYGMSWVRQAPGKGLEWVATISSASTYSYYPDSVKGRFTISRDNAKNSLYLQMNSLRVEDTALYYCGRHSDGNFAFGYWGQGTLVTVSS VL: DVLMTQSPLSLPVTPGEPASISCRSSRNIVHINGDTYLEWYLQKPGQSPQLLIYKVSNRFSGVPDRFSGSGSGTDFTLKISRVEAEDVGVYYCFQGSLLPWTFGQGTKVEIK" value_measured="69.8 % (at 1.4 nM IgG)"

Source: patent US20120164161A1
